- assay-name: Clearance in rat at 4 mg/kg, iv
- Type: ADME, organism-based
- Design: dose 4 mg/kg, route intravenous
- measurement-conditions: in vivo
endpoint-label: clearance (mL/min/kg)
Please give a number only; it is taken to be in mL/min/kg.

Entry "CC(C)N(C)[C@@H]1CC[C@H](N2CC[C@H](NC(=O)c3cccc(C(F)(F)F)c3)C2=O)[C@H](CS(=O)(=O)C(C)(C)C)C1" : reported clearance = ?
54

---

Answer each item with its documented clearance.
- assay-name: Clearance in dog at 1 mg/kg, iv
- Assay type: ADME, organism-based, Canis lupus familiaris
- Parameters: dose 1 mg/kg, route intravenous
- measurement-conditions: in vivo
Express the result in mL/min/kg but write the number alone.

// lookup clearance for "CC(C)N(C)[C@@H]1CC[C@H](N2CC[C@H](NC(=O)c3cccc(C(F)(F)F)c3)C2=O)[C@H](CS(=O)(=O)C(C)(C)C)C1"
5

So what's the measured clearance for this one? "CC(C)N(C)[C@@H]1CC[C@H](N2CC[C@H](NC(=O)c3cccc(C(F)(F)F)c3)C2=O)[C@H](CS(C)(=O)=O)C1"
3

---

- assay-name: Antagonist activity at CCR2 in human monocytes assessed as reduction of chemotaxis in presence of […]
endpoint-label: IC50 (pM)
Report the value in pM with no unit label.

Sample "CC(C)N(C)[C@@H]1CC[C@H](N2CC[C@H](NC(=O)c3cccc(C(F)(F)F)c3)C2=O)[C@H](CS(=O)(=O)c2ccccc2)C1" — what was its IC50?
500
